- tgt: human Nav1.1 (Homo sapiens, UniProt P35498)
- Construct: host or cells: HEK293
- protocol-notes: Amplification of Nav1.1-derived voltage-gated sodium current (Nav1.1 current), automated patch clamp (Test 1)
- Assay type: cell-based
- test-parameters: Concentration for evaluation 10 μM; HEK293 cell line stably expressing human Nav1.1
property-measured: Nav1.1 current amplification rate (%)
Respond numerically; units are % and should not be typed.

Examples from the recorded data:
molecule: CC1CC=C(c2ccc(=O)n(CC(=O)Nc3ccn4ccnc4n3)n2)CC1 (centres unmarked) [Example 242]
Nav1.1 current amplification rate (%): 97
--
molecule: CC1CC=C(c2ccc(=O)n(CC(=O)N3CC=C(c4cccnc4)CC3)n2)CC1 (centres unmarked) [Example 402]
Nav1.1 current amplification rate (%): 323
--
molecule: Cc1nc2ccc(NC(=O)Cn3nc(N4CCC(C)CC4)ccc3=O)cc2o1 [Example 68]
Nav1.1 current amplification rate (%): 42
--
molecule: CC1CC=C(c2ccc(=O)n(CC(=O)N3CCc4c(C5CN(C(C)C)C5)cccc43)n2)CC1 (centres unmarked) [Example 304]
Nav1.1 current amplification rate (%): 167
--
molecule: CC1CC=C(c2ccc(=O)n(CC(=O)Nc3ccn4cc(C(F)(F)F)nc4c3)n2)CC1 (racemic) [Example 421]
Nav1.1 current amplification rate (%): 199
--
molecule: CC1CC=C(c2ccc(=O)n(CC(=O)N3CCc4c(N5CCOCC5)cccc43)n2)C1 (centres unmarked) [Example 477]
Nav1.1 current amplification rate (%): 398
--
molecule: CC1CC=C(c2ccc(=O)n(CC(=O)N3CCC(Oc4ccccc4)CC3)n2)CC1 (centres unmarked) [Example 390]
Nav1.1 current amplification rate (%): 50

Okay, now this molecule:
What value of Nav1.1 current amplification rate (%) has been recorded for this entry: CC1CC=C(c2ccc(=O)n(CC(=O)N3C[C@@H](C)N(c4cccnc4)[C@@H](C)C3)n2)CC1 (some centres unmarked) [Example 416] 383

---

- tgt: human Nav1.1 (Homo sapiens, UniProt P35498)
- Construct: host or cells: HEK293
- protocol-notes: Amplification of Nav1.1-derived voltage-gated sodium current (Nav1.1 current), automated patch clamp (Test 1)
- Assay type: cell-based
- test-parameters: Concentration for evaluation 1 μM; HEK293 cell line stably expressing human Nav1.1
property-measured: Nav1.1 current amplification rate (%)
Respond numerically; units are % and should not be typed.

What value of Nav1.1 current amplification rate (%) has been recorded for this entry: Cc1cc(NC(=O)Cn2nc(C3=CCC(C)CC3)ccc2=O)cc2ncnn12 (centres unmarked) [Example 352] 155

Then this compound: CN(CC1(C)CC1)c1cnc2cnn(CC(=O)Nc3ccn4ncnc4c3)c2n1 [Example 639] 100

Then this compound: CC1CC=C(c2ccc(=O)n(CC(=O)N3CC=C(c4ccncc4)C3)n2)CC1 (centres unmarked) [Example 387] 19

Then this compound: CC1CC=C(c2ccc(=O)n(CC(=O)N3CCc4c3ccnc4C3=CCN(C(=O)OC(C)(C)C)C3)n2)CC1 (centres unmarked) [Example 280] 10

Then this compound: CC1CC=C(c2ccc(=O)n(CC(=O)Nc3ccc4cncnc4c3)n2)CC1 (centres unmarked) [Example 356] 378

Then this compound: Cc1nc2cc(NC(=O)Cn3ncc4ncc(N(C)C5CCCC5)nc43)ccc2o1 [Example 675] 36

Then this compound: Cc1cn2ccc(NC(=O)Cn3ncc4ncc(N(C)C5CCC5)nc43)cc2n1 [Example 686] 13

Then this compound: CN(c1cnc2cnn(CC(=O)N3CCc4c(C5CC5)cccc43)c2n1)C1CC1 [Example 730] 133
